# Test Description: NCI Yeast Anticancer Drug Screen. Data for the cln2 rad14 strain (AID 165);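 note: 0% = growth equal to vehicle treated cultures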
# Details: S. cerevisiae cln2 rad14 strain, at 50.0 µM, hits give high values
# Experimental: Growth inhibition of yeast strains with defined genetic alterations is measured as a screen for potential anti-cancer activity. Selected strains with alterations in DNA damage repair or cell cycle control were exposed to compounds and growth inhibition was measured relative to vehicle treated controls. The strain used in this assay is cln2 rad14
The panel holds about 79,000 compounds, 15% with a hit somewhere; the sample as a whole holds those more often.
Please enter Condition met where growth inhibition is greater than or equal to 90%, and Condition not met where it is lower.

Please tell me: is the compound CCCCCCCC/C=C\CCCCCCCC(=O)NCC[N+](C)(C)C at or over 90% in terms of growth inhibition? Condition met

Moving on to O=[N+]([O-])c1ccc2c(c1)/C(=C/c1ccc(O)cc1)c1ccccc1-2 Condition not met

Now try COC1CCC(/C(C#N)=C/c2ccco2)CC1 (stereo unspecified) . Condition not met

Moving on to CC(C)(C)c1ccc(C(=O)n2c(=S)oc3ccc(Cl)cc32)cc1 Condition not met

---

# Test Description: NCI Yeast Anticancer Drug Screen. Data for the rad50 strain (AID 155);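 note: 0% = growth of vehicle-only cultures of the same strain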
# Details: S. cerevisiae rad50 strain growth inhibition; at 50.0 µM; hits give high values
This is part of a sample that, as a whole, favours compounds with a hit. Of some 79,000 tested, about 15% had one in any assay.
Exercise: state measured growth inhibition for each of the compounds provided.
Give bare numbers, in %.

Before answering, review these 3 worked examples.
>  <Compound>
O=NNc1ccc(-c2ccc([N+](=O)[O-])cc2)cn1

>  <Numeric Readout>
25.4

$$$$
>  <Compound>
O=c1cccccc1[O-].O=c1cccccc1[O-].O=c1cccccc1[O-].[Nd+3]

>  <Numeric Readout>
91.9

$$$$
>  <Compound>
Clc1c(Cl)c(Cl)c(SC2C3CC4C(C3)C42)c(Cl)c1Cl (stereo unspecified)

>  <Numeric Readout>
98.3

$$$$

Hi! Can you tell me growth inhibition for each of these compounds?
1. CCCC(CCC)NCCOC(=O)C(CC)c1ccccc1 (stereo unspecified)
2. O=[N+]([O-])c1c[nH]c2ncnc(SCc3ccccc3)c12
3. O=S(=O)(O)c1ccc(N=Nc2ccc3c(S(=O)(=O)O)cccc3c2O)c2ccccc12

[88, 100, -1.35]

---

# Test Description: NCI Yeast Anticancer Drug Screen. Data for the rad50 strain (AID 155);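 note: 0% = growth of vehicle-only cultures of the same strain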
# Details: S. cerevisiae rad50 strain growth inhibition; at 50.0 µM
This is part of a sample that, as a whole, favours compounds with a hit. Of some 79,000 tested, about 15% had one in any assay. Activity calls are given as the source filed them. No stated cut-off is given here; in the data, active means growth inhibition above about 70%; inactive means the rest.
// classify into active, inactive

>  <Molecule>
CC1CCN(CCOC(=O)C(c2ccccc2)C2C=CCCC2)C1C (configuration not stated)

>  <Label Value>
active

$$$$
>  <Molecule>
O=[N+]([O-])/C(Cl)=C(\Sc1ccccc1)C(Cl)=C(Cl)Cl

>  <Label Value>
active

$$$$
>  <Molecule>
O=[N+]([O-])c1ccc2c(Nc3ccccc3-c3ccccc3Nc3c4ccccc4nc4cc([N+](=O)[O-])ccc34)c3ccccc3nc2c1

>  <Label Value>
active

$$$$
>  <Molecule>
CC(O)c1cccnc1 (configuration not stated)

>  <Label Value>
inactive

$$$$
>  <Molecule>
CC(C)(C)C(=O)CC(=O)C(F)(F)C(F)(F)C(F)(F)F.CC(C)(C)C(=O)CC(=O)C(F)(F)C(F)(F)C(F)(F)F.CC(C)(C)C(=O)CC(=O)C(F)(F)C(F)(F)C(F)(F)F.[Gd]

>  <Label Value>
active

$$$$

Entry CC(NC(=O)C(NC(=O)C(NC(=O)C(F)(F)F)C(C)C)C(C)C)C(=O)Oc1c(Cl)c(Cl)c(Cl)c(Cl)c1Cl (configuration not stated) : call = ? inactive

Now consider O=C(C=P(c1ccccc1)(c1ccccc1)c1ccccc1)c1ccc(Cl)cc1 and answer again. active

Also O=C(O)c1cc2ccc(Cl)cc2c2c1C(=O)c1cc(Cl)ccc1-2 ? active

What do you have for Cc1ccc(C(Cl)(c2ccc(C)cc2)c2ccc(C)cc2)cc1 ? inactive

---

# Test Description: NCI Yeast Anticancer Drug Screen. Data for the rad50 strain (AID 155);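 note: 0% = growth of vehicle-only cultures of the same strain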
# Details: S. cerevisiae rad50 strain growth inhibition; at 50.0 µM (retest, dose inferred, filed as 5.0); hits give high values
The panel holds about 79,000 compounds, 15% with a hit somewhere; the sample as a whole holds those more often.
growth inhibition below 80% gives not fulfilled; growth inhibition at or above it gives fulfilled.

>  <Molecule>
CCOCCOc1ccc(OCCOCC)cc1

>  <Label Value>
not fulfilled

$$$$
>  <Molecule>
NC(=S)C(=S)N/C=C/c1nc2ccccc2[nH]c1=O

>  <Label Value>
fulfilled

$$$$
>  <Molecule>
O=C1CCC(C(c2ccccc2)(c2ccccc2)c2ccccc2)CC1=O (stereo not given)

>  <Label Value>
fulfilled

$$$$
>  <Molecule>
C/C=C(\C)CC/C=C/CO[Si](C)(C)C(C)(C)C

>  <Label Value>
not fulfilled

$$$$
>  <Molecule>
CC(C)n1nnc2ccccc2c1=Nc1ccccc1

>  <Label Value>
fulfilled

$$$$
>  <Molecule>
CC[C@@]1(O)C[C@H](OC2CC(N(C)C)C(OC3CC(O)C(OC4CCC(=O)C(C)O4)C(C)O3)C(C)O2)c2c(cc3c(c2O)C(=O)c2c(O)cccc2C3=O)[C@H]1C(=O)OC (stereo not given in full)

>  <Label Value>
fulfilled

$$$$
>  <Molecule>
C[C@]12CC[C@H]3[C@@H](CCC4=CC(=O)CC[C@@]43C)[C@@H]1CC[C@@H]2O[Si](O[C@H]1CC[C@H]2[C@@H]3CCC4=CC(=O)CC[C@]4(C)[C@H]3CC[C@]12C)(O[C@H]1CC[C@H]2[C@@H]3CCC4=CC(=O)CC[C@]4(C)[C@H]3CC[C@]12C)c1ccccc1

>  <Label Value>
not fulfilled

$$$$
>  <Molecule>
CN1C(=O)CCC2[C@@H]3CC=C4C[C@@H](O)CC[C@]4(C)C3CC[C@@]21C (stereo not given in full)

>  <Label Value>
not fulfilled

$$$$

Let's switch to this molecule now.
Does the reported growth inhibition for C1=C(C2=C[P+](c3ccccc3)(c3ccccc3)C=C(c3ccccc3)O2)OC(c2ccccc2)=C[P+]1(c1ccccc1)c1ccccc1 fall at or above the 80% mark? not fulfilled

---

# Test Description: NCI Yeast Anticancer Drug Screen. Data for the rad50 strain (AID 155);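 note: 0% = growth of vehicle-only cultures of the same strain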
# Details: S. cerevisiae rad50 strain growth inhibition; at 50.0 µM
This is part of a sample that, as a whole, favours compounds with a hit. Of some 79,000 tested, about 15% had one in any assay. Activity calls are given as the source filed them. No stated cut-off is given here; in the data, active means growth inhibition above about 70%; inactive means the rest.
Respond using exactly one of the listed classes: 1 for active, -1 for inactive

>  <Molecule>
Cc1c2ncccc2cc2oc3ccccc3c(=O)c12

>  <Label Value>
-1

$$$$
>  <Molecule>
CC(=O)c1sc(Nc2ccc(Cl)c(Cl)c2)nc1C

>  <Label Value>
1

$$$$
>  <Molecule>
CN(C)CC1CCC2=C(C1=O)C(c1ccc(Cl)c(Cl)c1)C1=C(CCC(CN(C)C)C1=O)O2 (stereo unspecified)

>  <Label Value>
1

$$$$
>  <Molecule>
O=[N+]([O-])c1ccc(Sc2ccc([N+](=O)[O-])o2)o1

>  <Label Value>
1

$$$$

Record request — test call for CCCCCCOC(=O)C(N)Cc1ccc(OC)cc1 (stereo unspecified) -1

Subsequent entry: CCCCCCCCCCCCCCCCN 1

Cc1cc2c(C(C)C)c(O)c(O)c3coc(/c1=c1/c(C)cc4c(C(C)C)c(=O)c(=O)c5coc1c45)c32 , same question. 1

// same read-out, input: CC(C)=CCc1c(O)cc(O)c2c1OC(c1ccc(O)cc1)C(O)C2=O (stereo unspecified) 1

Also check CCC(C)c1ccc(O)c(C(C)c2ccccc2)c1 (stereo unspecified) 1

Also need CCCCCCCCCCCc1nnc(N)o1 , thanks. 1

Param item: CCCCCCCCCCC[N+]1(Cc2ccccc2)CC2CCN(Cc3ccccc3)CC2C1 (stereo unspecified) 1

---

# Test Description: NCI Yeast Anticancer Drug Screen. Data for the mlh1 rad18 strain (AID 175)
# Details: S. cerevisiae mlh1 rad18 strain growth inhibition; at 5.0 µM (retest, dose inferred, filed as 0.5); hits give high values
This is part of a sample that, as a whole, favours compounds with a hit. Of some 79,000 tested, about 15% had one in any assay.
Field: growth inhibition. Provide a value for each of the compounds that follow.
One number for each entry, in %.

Here are 6 compounds together with their reported answers.
>  <Compound>
O=C1Nc2c(Cl)cc(Cl)cc2/C1=N/N=C/c1ccco1

>  <Unit Of Measure>
%

>  <growth inhibition>
37

$$$$
>  <Compound>
C1=NN(c2ccccc2)C2c3ccccc3CCCC12 (configuration not stated)

>  <Unit Of Measure>
%

>  <growth inhibition>
-2

$$$$
>  <Compound>
C(=Nc1ccccc1)c1cn(Cc2ccccc2)c2ccccc12

>  <Unit Of Measure>
%

>  <growth inhibition>
99

$$$$
>  <Compound>
CCOC(=O)c1cc(Cl)nc2ccc(OC)cc12

>  <Unit Of Measure>
%

>  <growth inhibition>
-2

$$$$
>  <Compound>
Cc1cccc2c1C1c3c(C)cccc3C(O)CC1CC2O (configuration not stated)

>  <Unit Of Measure>
%

>  <growth inhibition>
1

$$$$
>  <Compound>
O=NNc1ncccc1OCc1ccccc1

>  <Unit Of Measure>
%

>  <growth inhibition>
9

$$$$

Shifting focus to the compound that follows.
Please report the recorded growth inhibition for N#CC1Sc2ccccc2N1C(=O)c1ccccc1 (configuration not stated) . -12

Just for reference, PubChem BioAssay (NCI) is where these values come from.
